Assay: First-in-human Phase 1 study (safety, PK) in relapsed or refractory CLL
Type: in vivo
Details: human, plasma, oral, 200 mg, human CLL, Week 1 Day-3 single dose, Subject 1, 200 mg
Description: Three subjects were enrolled in the first cohort of CLL arm. Subject 1: bulky disease, initial dose=200 mg Subject 2: non-bulky disease, initial dose=200 mg Subject 3: bulky disease, initial dose=100 mg The dosing scheme for CLL arm was as follows: single dose on Week 1 Day −3; QD dose started on Week 1 Day 1. PK sampling was done on Week 1 Day −3 and Week 3 Day 1.
measured-metric: Cmax (ng/mL)
State the answer as a number, implicitly in ng/mL.

Form field: reported Cmax of `CC1(C)CCC(CN2CCN(c3ccc(C(=O)NS(=O)(=O)c4ccc(NCC5CCOCC5)c([N+](=O)[O-])c4)c(Oc4cnc5[nH]ccc5c4)c3)CC2)=C(c2ccc(Cl)cc2)C1`
730

Every entry's value here was drawn from patent US11369599B2.
